Measured values drawn from patent US3959290A for this set.

- Test system: righting reflex loss induced by oxymorphone
- test: animal or person
- Format: in vivo
- details: Rattus norvegicus; rats, SC; oxymorphone 1.5 mg./kg. sc.; weights in terms of the free base; read-out: ED50 Antagonist Activity, Oxymorphone Narcosis, SC
Counter-ions that a name gives are not always drawn.
measure: ED50

Here's what some known entries look like.
# input Quick check: ED50 of C[C@@]12OCCC[C@@]13CCN(CC1CC1)[C@@H]2Cc1ccc(O)cc13 (racemic) [XVc tartrate] ?
# output 0.36 mg/kg

# input Quick check: ED50 of Cl.Oc1ccc2c(c1)[C@@]13CCCO[C@H]1[C@H](C2)N(CC1CC1)CC3 [l-XVk hydrochloride] ?
# output 0.03 mg/kg

# input Quick check: ED50 of C[C@@]12OCCC[C@@]13CCN(CC1CC1)[C@@H]2Cc1ccc(O)cc13 [l-XVc tartrate] ?
# output 0.014 mg/kg

Please turn your attention to the following entry.
# input Quick check: ED50 of CC(C)=CCN1CCC2(C)c3cc(O)ccc3CC1C2C (stereo not shown) [Pentazocine, reference compound] ?
# output 10 mg/kg
